Biological target: aryl hydrocarbon receptor (AHR) (Homo sapiens, UniProt P35869)
Sequence (P35869 11-848): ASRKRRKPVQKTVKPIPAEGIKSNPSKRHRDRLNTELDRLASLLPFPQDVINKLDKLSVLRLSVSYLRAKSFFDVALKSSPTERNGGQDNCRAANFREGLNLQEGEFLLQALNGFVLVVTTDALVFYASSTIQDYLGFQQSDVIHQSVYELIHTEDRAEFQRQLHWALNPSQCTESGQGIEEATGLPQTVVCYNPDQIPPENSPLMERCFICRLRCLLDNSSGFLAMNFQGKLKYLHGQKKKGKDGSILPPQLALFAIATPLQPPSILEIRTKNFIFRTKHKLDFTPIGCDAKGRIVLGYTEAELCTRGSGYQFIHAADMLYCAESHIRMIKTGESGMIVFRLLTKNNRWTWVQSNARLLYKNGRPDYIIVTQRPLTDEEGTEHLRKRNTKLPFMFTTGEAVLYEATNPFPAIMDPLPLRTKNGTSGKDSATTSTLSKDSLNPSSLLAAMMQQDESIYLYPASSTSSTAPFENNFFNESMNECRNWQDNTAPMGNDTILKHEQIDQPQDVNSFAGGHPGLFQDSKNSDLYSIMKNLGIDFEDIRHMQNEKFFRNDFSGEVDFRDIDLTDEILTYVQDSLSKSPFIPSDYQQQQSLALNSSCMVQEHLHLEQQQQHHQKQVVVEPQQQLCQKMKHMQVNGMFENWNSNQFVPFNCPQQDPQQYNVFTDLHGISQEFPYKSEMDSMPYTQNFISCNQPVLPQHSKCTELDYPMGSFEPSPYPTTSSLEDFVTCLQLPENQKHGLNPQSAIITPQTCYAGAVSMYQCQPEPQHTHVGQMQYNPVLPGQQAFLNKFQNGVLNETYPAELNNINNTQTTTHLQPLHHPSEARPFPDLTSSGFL
Assay: DRE-Luciferase reporter high-throughput screen (AHR antagonist, VAF347-activated)
pIC50: −log10 of the molar value.
reported metric: pIC50

# return pIC50 for each item in the list
1. CCC(=O)N1CCc2cc(C(=O)Nc3ccn(CCc4ccccn4)n3)ccc21
2. COc1nc2ccccc2nc1CCC(=O)NC1CCCCCC1 [161A]
3. O=C(Nc1nnc(-c2ccc(F)cc2)[nH]1)c1ccc(S(=O)(=O)C(F)F)cc1 [27A]
4. Clc1ccc(-c2noc(-c3csnn3)n2)cc1 [84B]
5. O=C(Nc1cc2c(s1)CCCC2)c1ccccc1 [21B]
6. CCSc1ccc(-c2ccc(-n3cccn3)cc2)nn1 [91B]
7. CNS(=O)(=O)c1ccc2c(c1)CCN2C(=O)c1ccn(-c2cccc(F)c2)n1 [107A]

1: 6.00 to 6.30; 2: < 5.70; 3: 5.70 to 6.00; 4: 6.00 to 6.30; 5: 5.70 to 6.00; 6: 5.70 to 6.00; 7: 5.70 to 6.00

# return pIC50 for each item in the list
1. N#Cc1ccccc1OCc1ccc(C(N)=O)cc1 [142A]
2. CCCc1cc(C(N)=O)c(NC(=O)COc2ccccc2C)s1
3. Cc1cn2cc(-c3ccc(F)cc3)nc2s1

< 5.70
6.30 to 6.70
6.00 to 6.30

# return pIC50 for each item in the list
1. Cc1cccnc1NC(=O)c1cc2c(ccc3ccccc32)[nH]1 [51A]
2. COCCN1Cc2cccc(C(=O)Nc3ccc(C)c(F)c3)c2C1=O
3. Cc1ccc(CS(=O)(=O)c2ccc(C(F)(F)F)cn2)cc1 [92A]
4. COc1ccc2cc(C)c3nn(CCNC(=O)c4sc(C)nc4C)c(=O)n3c2c1 [191A]
5. COc1ccc(OCCSc2nc3ccc(Br)cc3[nH]2)cc1 [112A]
6. COC(=O)C1=C(C)Nc2nc(-c3ccccc3)nn2C1c1cccnc1 (stereo not shown) [126A]

1: 5.70 to 6.00; 2: 6.30 to 6.70; 3: 5.70 to 6.00; 4: < 5.70; 5: 5.70 to 6.00; 6: 5.70 to 6.00

# return pIC50 for each item in the list
1. O=c1[nH]nc(CNc2ccc(Cl)cc2Cl)c2ccccc12
2. COc1cccc(Nc2ccc(-c3ccccc3)nn2)c1 [88A]
3. O=C(Nc1ccc(OC(F)(F)F)cc1)c1ccc(F)cc1
4. Cc1cc(C)c2oc(-c3cccc(NC(=O)c4cccnc4)c3C)nc2c1 [15A]
5. COC(=O)c1sc(-c2ccc(CC(C)C)cc2)cc1N [146A]

6.00 to 6.30
< 5.70
5.70 to 6.00
5.70 to 6.00
5.70 to 6.00

Would you kindly share the measured pIC50 for O=C(Nc1ccc(Cl)cc1)c1ccc(-c2ccccn2)s1 [15B] ? 6.00 to 6.30

====

Please go through the items and note down their IC50.
Target: UniProtKB P35869
Test: DRE-Luciferase reporter high-throughput screen (AHR antagonist, VAF347-activated)

O=C(Nc1ccc(-c2cnco2)cc1)c1ccc(F)cc1F
200 to 500 nM
Cc1cc(C)c(C#N)c(SCc2cc(-c3cccs3)on2)n1 [79B]
1000 to 2000 nM
CCN1C(=O)C[C@@H]2[C@@H]1CCN2S(=O)(=O)Cc1ccc(C)cc1 [182A]
1000 to 2000 nM

# return IC50 for each item in the list
1. CC(=O)c1ccc(C(=O)Nc2ccc(C)cc2Cl)s1 [21A]
2. CC(=O)c1oc2ccc3c(C)cc(=O)oc3c2c1C [118B]

1: 1000 to 2000 nM; 2: > 2000 nM

====

Molecular target: aryl hydrocarbon receptor (AHR) (Homo sapiens)
Experiment: DRE-Luciferase reporter high-throughput screen (AHR antagonist, VAF347-activated)
pIC50: −log10 of the molar value.
reported metric: pIC50

Cc1csc(Nc2nc(N)c(C(=O)Nc3cc(Cl)ccc3F)o2)n1 [compound 37]
6.00 to 6.30
CC(C)CCNC(=O)c1cc2c(=O)n(C)c3ccccc3c2s1 [compound 145]
6.00 to 6.30
NC(=O)c1cc(-c2ccc(Cl)s2)nc2ccccc12 [156A]
5.70 to 6.00
Cc1cc(C(=O)NNC(=O)c2cnn(-c3ccccc3C)c2C(F)(F)F)c(C)o1 [compound 139]
6.00 to 6.30
Cc1ccc(-c2ccc3c(C)nn(-c4ccccn4)c3n2)cc1 [compound 105]
6.30 to 6.70
N#Cc1cn(-c2ccc(Cl)cc2)nc1C(=O)c1cccs1 [compound 91]
6.30 to 6.70

# return pIC50 for each item in the list
1. Cc1ccc(Nc2ccc(NC(=O)c3ccc(-c4ccccc4)cc3)cc2)nn1 [compound 5]
2. COc1ccc(-c2csc(C3=C(N)N(C(C)C)CC3=O)n2)cc1 [compound 55]
3. COc1ccc(-c2cnn3c(C)cc(C)nc23)cc1OC [71B]
4. CN(C)c1nc(N2CCN(c3ccc(F)cc3)CC2)cc(C(F)(F)F)n1 [compound 81]
5. C1=C(c2ccccc2)CCN(c2ccc3nnnn3n2)C1 [compound 110]
6. CN(/N=C/c1cc(Br)cs1)c1ccc(Cl)nn1 [50B]
7. Clc1ccc(-c2noc(-c3c[nH]nc3-c3ccccc3)n2)cc1 [86B]
8. CCN(CC)c1ccc(NC(=O)c2cccnc2O)cc1 [12A]

6.00 to 6.30
6.00 to 6.30
5.70 to 6.00
6.30 to 6.70
6.00 to 6.30
6.00 to 6.30
< 5.70
5.70 to 6.00

# return pIC50 for each item in the list
1. COc1ccccc1-c1nc(-c2ccc(CN(C)C(C)=O)cc2)cs1 [compound 50]
2. COc1cccc(-c2nn3c(-c4ccccn4)nnc3s2)c1 [98A]
3. CC(C)c1nc2ccc(NC(=O)c3ccc(F)cc3)cc2[nH]1 [37A]
4. CCC1CCc2c(sc(NC(=O)c3c(C)noc3C)c2C(N)=O)C1 (stereo not shown) [31B]

1: > 6.70; 2: 5.70 to 6.00; 3: 5.70 to 6.00; 4: 5.70 to 6.00

# return pIC50 for each item in the list
1. Cn1nc(N2CCN(c3ccccc3Cl)CC2)c(=O)n(C)c1=O [42B]
2. CC(C)OCCCn1c(=O)c(-c2cccs2)nc2cc(S(=O)(=O)N3CCOCC3)ccc21 [compound 128]
3. CN1/C(=N/c2ccccc2)SCC1(O)c1ccc([N+](=O)[O-])cc1 (stereo not shown) [compound 142]

1: 6.30 to 6.70; 2: 6.00 to 6.30; 3: 6.30 to 6.70

# return pIC50 for each item in the list
1. Cc1nn(C)cc1-c1nnc(-c2cccc(C(F)(F)F)c2)o1 [138A]
2. Cc1ccccc1OCCNC(=O)c1cc(Cl)ccc1F [141A]
3. Cc1ccc2nc(-c3ccc(Cl)cc3)cc(C(N)=O)c2c1 [compound 116]
4. O=C(Nc1ccc(C(F)(F)F)oc1=O)c1ccc(Cl)cc1 [17B]

1: 5.70 to 6.00; 2: 5.70 to 6.00; 3: > 6.70; 4: 6.00 to 6.30

====

Please go through the items and note down their IC50.
Molecular target: aryl hydrocarbon receptor (AHR) (Homo sapiens, UniProt P35869)
Test: DRE-Luciferase reporter high-throughput screen (AHR antagonist, VAF347-activated)

# annotated cases, reported IC50 shown
CSc1ccc(-c2nnc(NC(=O)C(C)(C)C)s2)cc1 [99B]
> 2000 nM
Cc1ccc(NC(=O)c2ccc(OC(F)(F)F)cc2)nc1 [compound 10]
500 to 1000 nM
Ic1ccc(-c2cnc(-c3ccncc3)o2)cc1 [76B]
200 to 500 nM
COC(OC)c1ccc(C#N)c(=O)n1Cc1ccc(Cl)cc1 [92B]
1000 to 2000 nM
CCn1cc(C(=O)Nc2ccc(C(C)C)cc2)cn1 [23A]
1000 to 2000 nM
Clc1ccc(-c2nc(-c3cnccn3)no2)cc1 [compound 140]
500 to 1000 nM
CC(C)n1nnc2cc(C(=O)Nc3ccc(Cl)cc3)ccc21 [compound 17]
500 to 1000 nM
c1cncc(-c2noc(-c3cc(-c4cccs4)[nH]n3)n2)c1 [compound 144]
500 to 1000 nM
O=C(COC(=O)c1cn2ccccc2n1)Nc1ccc(Cl)cc1Cl [117A]
> 2000 nM
CC(=O)N(C)Cc1cccc(NC(=O)c2n[nH]c3ccccc23)c1 [compound 30]
500 to 1000 nM

# return IC50 for each item in the list
1. Cn1c(N)c(C(=O)CSc2ccc(F)cc2)c(=O)n(C)c1=O [195A]
2. Cc1c(Br)c(C(=O)N2CCc3ccccc32)nn1C [61B]
3. O=C(Cc1ccccc1)Nc1ccc2nc(C(F)(F)F)[nH]c2c1 [111A]

["1000 to 2000 nM", "1000 to 2000 nM", "1000 to 2000 nM"]

// provenance: patent US20210220408A1
